Data provenance is patent US9273040B2.

System tested: human Nav1.7 channels stably expressed in HEK 293 cells (Homo sapiens, UniProt Q15858)
Construct: expressed in transfected cells
Sequence (Q15858 whole entry): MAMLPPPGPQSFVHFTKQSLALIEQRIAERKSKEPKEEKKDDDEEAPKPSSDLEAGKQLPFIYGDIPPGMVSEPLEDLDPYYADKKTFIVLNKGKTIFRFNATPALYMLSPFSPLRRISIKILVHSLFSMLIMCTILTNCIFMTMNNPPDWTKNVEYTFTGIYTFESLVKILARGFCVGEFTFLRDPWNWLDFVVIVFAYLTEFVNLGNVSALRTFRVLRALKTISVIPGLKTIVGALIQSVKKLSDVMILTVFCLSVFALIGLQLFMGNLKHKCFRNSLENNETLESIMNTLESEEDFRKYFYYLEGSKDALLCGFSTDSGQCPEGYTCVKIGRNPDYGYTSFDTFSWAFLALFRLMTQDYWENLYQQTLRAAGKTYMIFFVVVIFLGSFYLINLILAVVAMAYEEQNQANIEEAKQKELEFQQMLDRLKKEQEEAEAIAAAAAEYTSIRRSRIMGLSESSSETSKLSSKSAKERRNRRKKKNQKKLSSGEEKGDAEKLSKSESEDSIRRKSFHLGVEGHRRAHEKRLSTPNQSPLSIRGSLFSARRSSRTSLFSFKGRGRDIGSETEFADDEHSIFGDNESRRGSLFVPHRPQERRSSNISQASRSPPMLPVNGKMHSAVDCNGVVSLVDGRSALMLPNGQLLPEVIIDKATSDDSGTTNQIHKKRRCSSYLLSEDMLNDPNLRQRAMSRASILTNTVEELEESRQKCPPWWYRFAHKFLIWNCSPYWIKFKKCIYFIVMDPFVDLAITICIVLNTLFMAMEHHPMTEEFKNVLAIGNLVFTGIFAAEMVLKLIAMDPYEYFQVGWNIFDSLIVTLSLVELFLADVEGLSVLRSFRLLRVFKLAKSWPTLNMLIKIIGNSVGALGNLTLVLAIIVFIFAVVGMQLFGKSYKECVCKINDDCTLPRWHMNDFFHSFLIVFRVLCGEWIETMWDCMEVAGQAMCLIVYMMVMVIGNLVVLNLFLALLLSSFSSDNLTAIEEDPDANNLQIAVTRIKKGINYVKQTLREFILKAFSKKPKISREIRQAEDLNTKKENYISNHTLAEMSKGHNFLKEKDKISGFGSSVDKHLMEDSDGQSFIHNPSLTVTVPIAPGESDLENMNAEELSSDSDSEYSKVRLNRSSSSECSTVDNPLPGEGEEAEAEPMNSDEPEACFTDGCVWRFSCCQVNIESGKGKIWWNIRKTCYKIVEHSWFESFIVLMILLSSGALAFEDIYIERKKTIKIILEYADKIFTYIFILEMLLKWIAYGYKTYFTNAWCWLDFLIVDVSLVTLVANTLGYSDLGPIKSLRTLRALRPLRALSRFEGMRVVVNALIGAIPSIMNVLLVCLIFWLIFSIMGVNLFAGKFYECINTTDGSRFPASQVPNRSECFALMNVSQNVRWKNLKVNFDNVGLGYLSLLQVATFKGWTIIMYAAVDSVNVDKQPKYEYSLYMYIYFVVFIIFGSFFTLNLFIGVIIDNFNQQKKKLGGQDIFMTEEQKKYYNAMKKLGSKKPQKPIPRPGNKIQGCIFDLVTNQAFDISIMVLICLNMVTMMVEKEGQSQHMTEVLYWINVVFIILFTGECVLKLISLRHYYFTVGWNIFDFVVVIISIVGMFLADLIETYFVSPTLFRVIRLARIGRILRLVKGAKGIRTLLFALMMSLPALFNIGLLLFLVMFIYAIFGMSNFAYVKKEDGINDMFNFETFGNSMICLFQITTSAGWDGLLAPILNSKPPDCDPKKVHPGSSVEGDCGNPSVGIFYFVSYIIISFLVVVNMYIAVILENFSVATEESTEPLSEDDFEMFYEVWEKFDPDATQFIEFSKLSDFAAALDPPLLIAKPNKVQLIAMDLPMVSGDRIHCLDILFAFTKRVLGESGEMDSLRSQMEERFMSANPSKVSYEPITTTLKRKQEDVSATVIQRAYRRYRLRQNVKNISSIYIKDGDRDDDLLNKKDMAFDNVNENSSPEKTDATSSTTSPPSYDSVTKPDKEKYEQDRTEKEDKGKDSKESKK
Experimental protocol: PatchXpress 7000 automated patch-clamp, sodium current
Assay type: cell-based
Stated conditions: 22° C., read-out: potency for the Nav 1.7 sodium ion channel (as measured by PatchXpress)
We begin with a simple list: items and their reported pIC50.
# reply with the number alone; pIC50 is -log10 of concentration in mol/L

# annotated cases, reported pIC50 shown
>  <Compound>
NC1CCc2cccc(Cn3c(=O)oc4cc(S(=O)(=O)Nc5ncns5)ccc43)c2C1 (single isomer, unassigned) [Compound 23-14]

>  <pIC50>
7.12

$$$$
>  <Compound>
O=c1oc2cc(S(=O)(=O)Nc3ncns3)c(F)cc2n1Cc1cccc2c1CC(NCC(F)F)CC2 (racemic) [Compound 23-13]

>  <pIC50>
7.08

$$$$

With those in mind, consider the next compound.
[in] Please give the documented pIC50 of C[C@H](c1ccccc1C#C[C@@H](C)O)n1c(=O)oc2cc(S(=O)(=O)Nc3ncns3)c(F)cc21 [Compound 17-7]
[out] 7.11
